Reported fluorescence relative to imm3 binding (=100) values follow for various binders
Molecular target: T1, full length RXR-gamma (human, UniProt P48443 1-463)
T1 construct: mature; also called RXRγ; NR2B3
T1 sequence (looked up): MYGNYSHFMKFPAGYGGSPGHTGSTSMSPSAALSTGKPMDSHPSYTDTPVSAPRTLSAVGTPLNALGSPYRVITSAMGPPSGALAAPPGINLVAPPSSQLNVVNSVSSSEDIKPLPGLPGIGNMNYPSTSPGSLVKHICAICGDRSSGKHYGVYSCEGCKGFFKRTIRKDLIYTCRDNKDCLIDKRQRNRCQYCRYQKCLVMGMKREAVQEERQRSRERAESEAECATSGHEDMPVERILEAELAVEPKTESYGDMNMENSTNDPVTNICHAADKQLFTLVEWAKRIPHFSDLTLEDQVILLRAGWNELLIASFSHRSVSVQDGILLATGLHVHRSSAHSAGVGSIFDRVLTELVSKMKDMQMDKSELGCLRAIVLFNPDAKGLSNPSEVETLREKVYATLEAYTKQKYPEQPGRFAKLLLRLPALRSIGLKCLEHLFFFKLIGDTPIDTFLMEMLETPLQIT
Assay: plate binding assay, 800 ng/well SA488-labelled peptide on 400 ng/well adsorbed receptor
Ends that are not written are not given here. * marks the point of attachment. Biotin = O=C1N[C@H]2[C@H](CS[C@H]2CCCCC(=O)*)N1
Metric name: fluorescence relative to imm3 binding (=100)

Binder	Value reported
Biotin-KKGFYKKKQCRPSKGRKRGFCW (cysteine pairing not given here; also: labelled with Streptavidin-Alexa 488 conjugate (SA488), Synthetic immodulin peptide derived from IGFBP-3; also called immodulin peptide-3) [imm3]	100 relative to imm3 binding (=100)
Biotin-RKGFYKRKQCKPSRGRKRGICW (cysteine pairing not given here; also: labelled with Streptavidin-Alexa 488 conjugate (SA488), Synthetic immodulin peptide derived from IGFBP-5; also called immodulin peptide-5) [imm5]	90 relative to imm3 binding (=100)
Biotin-HRGFYRKRQCRSSQGQRRGPCW (cysteine pairing not given here; also: labelled with Streptavidin-Alexa 488 conjugate (SA488), Synthetic immodulin peptide derived from IGFBP-6; also called immodulin peptide-6) [imm6]	42 relative to imm3 binding (=100)
Biotin-RNGNFHPKQCHPALDGQRGKCW (cysteine pairing not given here; also: labelled with Streptavidin-Alexa 488 conjugate (SA488), Synthetic immodulin peptide derived from IGFBP-4) [imm4]	3.6 relative to imm3 binding (=100)
